IC50 listing for selected molecules.
# SUBJECT_OF_TEST: hP2X3 (Homo sapiens)
# Construct: expressed in transfected cells; host or cells: e.g. HEK293 or 1321N1
# ASSAY_METHOD_TEXT: Calcium uptake assay (P2X antagonist assay), P2X3 homomer
# Assay type: cell-based
# CONDITION_NOTES: calcium uptake assay, hP2X3; read-out: IC50 hP2X3 (nM), Ca Influx
# Protocol: The human P2X2/3 chimera clone is created as described by Neelands et al, and then cloned into an expression vector as above. […] Functional activity of compounds at the P2X receptor is determined by measuring their ability to inhibit agonist-induced calcium influx. […] At the start of each screening day, the agonist EC50 is determined. Compound % inhibition or IC50s are subsequently determined using a predetermined agonist concentration (EC50-90 depending on cell line) as a stimulus. […]

A selection of reference data follows.
CCOC(=O)c1cc(C(=O)N[C@@H](C)CO)cc(-c2ccc(C)cc2)c1 [Compound 6]
100 to 500 nM
COc1ccc(CNC(=O)c2cc(-c3ccc(C)cc3)cc(S(C)(=O)=O)c2)cn1 [Compound 144]
100 to 500 nM
CCCS(=O)(=O)c1cc(C(=O)N[C@@H](C)CO)cc(-c2ccc(C)cc2)c1 [Compound 42]
< 100 nM
Cc1ccc(-c2cc(C(=O)NCc3ccc(C)nc3)cc(C(=O)N3CCNC(C)C3)c2)cc1 (centres unmarked) [Compound 126]
< 100 nM
Cc1ccc(-c2cc(C(=O)NCc3ccc(C)nc3)cc(C(=O)N(C)c3ccncc3)c2)cc1 [Compound 163]
< 100 nM

## Task IC50 for Cc1ccc(-c2cc(C(=O)NCc3ncc(Cl)cc3Cl)cc(C(=O)N3CC(O)C3)c2)cc1 [Compound 134] ?
## Result < 100 nM

## Task IC50 for Cc1ccc(-c2cc(C(=O)NCc3cnc(C)nc3)cc(C(=O)N3CCC(F)(F)C3)c2)cc1 [Compound 34] ?
## Result < 100 nM

## Task IC50 for Cc1ccc(-c2cc(C(=O)NCC(C)C)cc(C(=O)N[C@@H](C)CO)c2)cc1 [Compound 2] ?
## Result 501 to 1000 nM

====

# SUBJECT_OF_TEST: hP2X3 (Homo sapiens, UniProt P56373)
# Construct: expressed in transfected cells; host or cells: e.g. HEK293 or 1321N1
# Sequence (P56373 whole entry): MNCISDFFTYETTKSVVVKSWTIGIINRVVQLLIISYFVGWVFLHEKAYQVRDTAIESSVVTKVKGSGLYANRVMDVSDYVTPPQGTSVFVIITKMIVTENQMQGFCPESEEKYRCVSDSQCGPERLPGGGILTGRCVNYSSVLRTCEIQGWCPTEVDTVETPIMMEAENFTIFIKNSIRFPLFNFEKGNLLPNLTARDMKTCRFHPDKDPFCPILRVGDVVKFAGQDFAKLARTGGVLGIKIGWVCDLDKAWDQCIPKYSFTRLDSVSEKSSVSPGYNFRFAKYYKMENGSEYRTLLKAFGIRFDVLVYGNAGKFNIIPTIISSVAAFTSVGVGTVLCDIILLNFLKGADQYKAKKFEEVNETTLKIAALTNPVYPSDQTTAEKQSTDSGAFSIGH
# ASSAY_METHOD_TEXT: Calcium uptake assay (P2X antagonist assay), P2X3 homomer
# Format: cell-based
# CONDITION_NOTES: calcium uptake assay, hP2X3; read-out: IC50 hP2X3 (nM), Ca Influx
IC50 listing for selected molecules.

A selection of reference data follows.
CCOC(=O)c1cc(C(=O)NCc2ccc(C)nc2)cc(-c2ccc(C)cc2)c1
100 to 500 nM
Cc1ccc(CNC(=O)c2cc(-c3ccc(Cl)c(F)c3)cc(S(C)(=O)=O)c2)cn1
501 to 1000 nM
Cc1ccc(-c2cc(C(=O)NCc3ccc(C)nc3)cc(C(=O)N(C)c3ccccn3)c2)cc1
< 100 nM
Cc1ccc(-c2cc(C(=O)N[C@H](C)c3ccc(C)nc3)cc(S(=O)(=O)CC(C)C)c2)cc1
100 to 500 nM
CCCS(=O)(=O)c1cc(C(=O)N[C@H](C)c2cnc(C)nc2)cc(-c2ccc(C)cc2)c1
< 100 nM
Cc1ccc(-c2cc(C(=O)NCc3ccc(C)nc3)cc(C(=O)N3CCN4CCCC4C3)c2)cc1 (stereo not shown)
< 100 nM

## Task IC50 for `Cc1ccc(-c2cc(S(=O)(=O)N3CCCC3)cc(C(=O)NCc3ccc(Cl)c(S(C)(=O)=O)c3)c2C)cc1` ?
## Result 100 to 500 nM

## Task IC50 for `Cc1ccc(-c2cc(C(=O)NCc3ccc(C)nc3)cc(C(=O)N3CCCc4ccccc43)c2)cc1` ?
## Result 100 to 500 nM

## Task IC50 for `Cc1ccc(-c2cc(C(=O)N[C@H](C)c3cnn(CC(F)(F)F)c3C)cc(C(=O)N3CCCC3)c2)cc1` ?
## Result 501 to 1000 nM
